Each recorded value in this set is attributed to patent US20090304651A1.

Target: T1, recombinant human IGF-II (Insulin-like Growth Factor II) (human, UniProt P01344 25-91, biotinylated (Biotinyl-IGF-II, GroPep) where immobilised in SPR, site not stated; not biotinylated in ITC and as SPR analyte)
T1 construct: also called IGF2; IGF-2
T1 sequence (P01344 25-91 limits assumed): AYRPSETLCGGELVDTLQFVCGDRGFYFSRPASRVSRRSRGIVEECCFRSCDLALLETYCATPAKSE
Test: SPR, IGF-II immobilised, kinetic fit
Listing of recorded pKd by entry.
# reply with the number alone; pKd is -log10 of concentration in mol/L

Previously resolved entries follow.
>  <BINDER>
IGF2R domain 11 S1543A (amino acids 1511-1650, C-terminal His6 tag, from Pichia pastoris) (receptor) NEHDDCQVTNPSTGHLFDLSSLSGRAGFTAAYAEKGLVYMSICGENENCPPGVGACFGQTRISVGKANKRLRYVDQVLQLVYKDGSPCPSKSGLSYKSVISFVCRPEAGPTNRPMLISLDKQTCTLFFSWHTPLACEQATHHHHHH

>  <OUTCOME MEASURE>
pKd

>  <VALUE OBSERVED>
6.59

$$$$
>  <BINDER>
wild type IGF2R domain 11 (amino acids 1511-1650) with C-terminal His6 tag, from Pichia pastoris (receptor, also called WT; wild type domain 11) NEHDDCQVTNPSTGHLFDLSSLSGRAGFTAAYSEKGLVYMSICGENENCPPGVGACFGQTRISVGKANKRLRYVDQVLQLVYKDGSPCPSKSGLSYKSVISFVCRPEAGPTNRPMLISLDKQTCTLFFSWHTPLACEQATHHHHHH

>  <OUTCOME MEASURE>
pKd

>  <VALUE OBSERVED>
6.99

$$$$

# pKd lookup, item IGF2R domain 11 T1570A (amino acids 1511-1650, C-terminal His6 tag, from Pichia pastoris) (receptor) NEHDDCQVTNPSTGHLFDLSSLSGRAGFTAAYSEKGLVYMSICGENENCPPGVGACFGQARISVGKANKRLRYVDQVLQLVYKDGSPCPSKSGLSYKSVISFVCRPEAGPTNRPMLISLDKQTCTLFFSWHTPLACEQATHHHHHH
6.02

Now consider IGF2R domain 11 E1544A (amino acids 1511-1650, C-terminal His6 tag, from Pichia pastoris) (receptor) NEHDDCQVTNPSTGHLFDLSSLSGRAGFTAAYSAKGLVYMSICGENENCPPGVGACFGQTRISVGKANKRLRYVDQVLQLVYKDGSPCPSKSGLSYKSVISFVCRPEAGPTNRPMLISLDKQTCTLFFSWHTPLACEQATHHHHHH and answer again.
7.44
